- Tested on: HCT-116 colon
- ASSAY COMMENT: NCI-60 one-dose screen, 48 h (100 = growth as untreated, 0 = no growth, -100 = all killed)
- TEST CONDITIONS: 10 µM unless noted
About 83,000 compounds went through this panel and 20% of them were active in at least one assay; those are over-represented in the sample as a whole.
The class of a record is decided solely by its measured growth; consult lower = under 10%, middle = from 10% up to 90%, upper = 90% and over

Answered cases to consult:
{"MOLECULE": "COc1cccc2c1C=C1CCCCC3=Cc4c(OC)cccc4OC13O2", "ANSWER LABEL": "middle"}
{"MOLECULE": "O=C(Nc1ccc(Cl)cc1F)c1cc(F)ccc1O", "ANSWER LABEL": "lower"}
{"MOLECULE": "Cc1cc2c(c(C)c1Cl)C(=O)/C(=C/c1cccc([N+](=O)[O-])c1)O2", "ANSWER LABEL": "upper"}
{"MOLECULE": "COc1ccc(-c2nsc3c2NC(=O)CC3c2ccc3c(c2)OCCO3)cc1 (stereo not given)", "ANSWER LABEL": "middle"}
{"MOLECULE": "O=c1oc2ccc(F)cc2c(=O)n1-c1ccc(F)cc1F", "ANSWER LABEL": "middle"}
{"MOLECULE": "O=C(CN1C=NC2C(N3CCOCC3)=NC=NC21)c1ccc(Br)cc1 (stereo not given)", "ANSWER LABEL": "upper"}
{"MOLECULE": "COc1ccc(CCN2C(=O)/C(=C/c3ccc(C4Oc5ccccc5C5CC(c6cccc(OC)c6)=NN54)cc3)SC2=S)cc1 (stereo not given)", "ANSWER LABEL": "upper"}
{"MOLECULE": "NCCCNc1nc2ccccc2c2c(=O)c3cc(F)ccc3sc12", "ANSWER LABEL": "lower"}

Let's switch to this molecule now.
Prompt: Which class is correct for the following molecule? O=c1oc2ccc(-c3ccc(F)cc3F)cc2c(=O)n1-c1cccc(C(F)(F)F)c1
Completion: lower

###

- Test system: HOP-62 NSCLC
- ASSAY COMMENT: NCI-60 one-dose screen, 48 h (100 = growth as untreated, 0 = no growth, -100 = all killed)
- TEST CONDITIONS: 10 µM unless noted
- Procedure: Growth inhibition of the HOP-62 human Non-Small Cell Lung tumor cell line is measured as a screen for anti-cancer activity. Cells are grown in 96 well plates and exposed to the test compound for 48 hours. Compounds are tested at a single concentration, which is 10^-5 M for most compounds. The reported endpoint is percent growth (GI% or GIPRCNT), where numbers from 0 - 100% represent growth inhibition, and numbers from -100% - 0 represent cell death. […]
This is part of a sample that, as a whole, favours compounds with a hit. Of some 83,000 tested, about 20% had one in any assay.
PROPERTY NAME: growth (%)
Output spec: scalar in %, unitless text.

{"COMPOUND": "CN1C(=O)N(C)C2C1NN=c1s/c(=C\\c3ccc(Cl)cc3Cl)c(=O)n12 (stereo not given)", "VALUE OBSERVED": 54.3}
{"COMPOUND": "O=C(Nc1ccc(F)cc1F)c1cc(Br)ccc1O", "VALUE OBSERVED": -8.56}
{"COMPOUND": "O=c1[nH]nnc2c1ncn2C1OC(CO)C(O)C1O (stereo not given)", "VALUE OBSERVED": 66.7}
{"COMPOUND": "COc1cc(C2C(C#N)=C(N)OC3=C2C(=O)c2ccccc2C3=O)cc(OC)c1OC (stereo not given)", "VALUE OBSERVED": 7.45}
{"COMPOUND": "COc1ccc(-c2nc(N3CCN(C(=O)C4CCCCC4)CC3)c3c4c(sc3n2)CCCC4)cc1", "VALUE OBSERVED": -84.5}

Prompt: Specify growth for COc1ccc(-c2nsc3c2NC(=O)CC3c2ccc3c(c2)OCCO3)cc1 (stereo not given) and stop.
Completion: 34.8

Prompt: Specify growth for COc1c(B(O)O)cccc1-c1nc2ccc3n[nH]c(F)c3c2c2c1CCCC2 and stop.
Completion: 66.3

Prompt: Specify growth for CC(=S)NC(=O)C(=O)/C=C1/NC(=O)C(=O)S1 and stop.
Completion: 100

Prompt: Specify growth for CN1CCN(Cc2ccc(C(=O)Nc3cncc(C#Cc4cnc5cccnn45)c3)cc2C(F)(F)F)CC1 and stop.
Completion: 70.9

Prompt: Specify growth for COc1cccc2c(=O)c3c(sc12)c(NCCCNCCO)nc1ccccc13 and stop.
Completion: 44.4
